System: SW-620 colon
experiment description: NCI-60 one-dose screen, 48 h
settings: 10 µM unless noted
About 83,000 compounds went through this panel and 20% of them were active in at least one assay; those are over-represented in the sample as a whole. The source made the active and inactive calls. How the source made its calls: active means growth percent below 10; inactive means the rest.
// allowed return values: class 1 for active, class 0 for inactive

Worked examples follow.
Request: Tell me the recorded outcome of this test for "Cc1scc2c1N(C(=O)CN1CCN(C)CC1)c1ccccc1NC2=O" .
Result: class 0

Request: Now consider "COc1ccc(COC(C)=O)cc1" .
Result: class 0

Request: Then CC(=O)Oc1c(C)c(OC(C)=O)c2c(c1C(C)=O)OC1CC(=O)C(C(C)=O)=C(O)C21C (stereo unspecified) ?
Result: class 0

Further cases:
Request: In this assay, the call recorded for "O=[N+]([O-])c1ccc(N/N=C/c2c(O)ccc3ccccc23)nc1" was what?
Result: class 0

Request: Also "CCOC(=O)/C=C(/C)Sc1cc(O)c2ccccc2c1O" ?
Result: class 1

Request: Subsequent entry: Nc1c2ccccc2nc2ccccc12 (tested in a mixture with another compound)
Result: class 0
